# TEST TARGET: HLA-B*07 (Homo sapiens)
# ASSAY PROTOCOL: MHC binding assay (UV-ligand exchange, ELISA of stabilized MHC complexes)
# CONDITION SET: peptide exchange yield on HLA-B*07, UV-ligand exchange
ASSAY ENDPOINT: Peptide exchange

SUBSTANCE: 86 (ALLLRGVTL; listed as Homo sapiens) [compound 86]
Peptide exchange: ++ (>20% = ++)
//
SUBSTANCE: 153 (QPVHSLCSA; listed as Homo sapiens) [compound 153]
Peptide exchange: ++++ (>75% = ++++)
//
SUBSTANCE: 498 (RPQPQPRPAL; listed as Homo sapiens) [compound 498]
Peptide exchange: ++++ (>75% = ++++)
//
SUBSTANCE: 187 (APPPPPPPF; listed as Homo sapiens) [compound 187]
Peptide exchange: ++++ (>75% = ++++)
//
SUBSTANCE: 267 (MPVPGILL; listed as Homo sapiens) [compound 267]
Peptide exchange: +++ (>50 = +++)
//
SUBSTANCE: 491 (MPEADLKRIF; listed as Homo sapiens) [compound 491]
Peptide exchange: ++ (>20% = ++)
//
SUBSTANCE: 11 (APLPRPGAV; listed as Homo sapiens) [compound 11]
Peptide exchange: ++++ (>75% = ++++)
//
SUBSTANCE: 341 (LPRSPPLKVL; listed as Homo sapiens) [compound 341]
Peptide exchange: ++++ (>75% = ++++)

-- ask Determine from records and report Peptide exchange for 305 (AASPVGSAL; listed as Homo sapiens) [compound 305]
-- reply +++ (>50 = +++)

-- ask Answer with the recorded Peptide exchange of 71 (APFAPLHGGGSL; listed as Homo sapiens) [compound 71] only.
-- reply +++ (>50 = +++)

-- ask Write down Peptide exchange measured for item 496 (MPAVSGPGPLF; listed as Homo sapiens) [compound 496]
-- reply +++ (>50 = +++)

-- ask Please give measured Peptide exchange of the following entry: 8 (MPKTNLSKM; listed as Homo sapiens) [compound 8]
-- reply +++ (>50 = +++)

-- ask Write down Peptide exchange measured for item 284 (RPSAPRGPP; listed as Homo sapiens) [compound 284]
-- reply ++++ (>75% = ++++)

-- ask Indicate its recorded Peptide exchange; the substance in question is 150 (APLHGGGSL; listed as Homo sapiens) [compound 150]
-- reply +++ (>50 = +++)

====

# TEST TARGET: HLA-B*07 (Homo sapiens, UniProt P01889)
# ASSAY PROTOCOL: MHC binding assay (UV-ligand exchange, ELISA of stabilized MHC complexes)
# CONDITION SET: peptide exchange yield on HLA-B*07, UV-ligand exchange
ASSAY ENDPOINT: Peptide exchange

Solved cases (5 shown):
SUBSTANCE: 39 (QPRPSSEKI; listed as Homo sapiens) [compound 39]
Peptide exchange: +++ (>50 = +++)
//
SUBSTANCE: 168 (SPSGQRDVSL; listed as Homo sapiens) [compound 168]
Peptide exchange: ++++ (>75% = ++++)
//
SUBSTANCE: 196 (RPSGTAGAAL; listed as Homo sapiens) [compound 196]
Peptide exchange: +++ (>50 = +++)
//
SUBSTANCE: 383 (KPRATWTLKL; listed as Homo sapiens) [compound 383]
Peptide exchange: +++ (>50 = +++)
//
SUBSTANCE: 167 (NVNPARKGL; listed as Homo sapiens) [compound 167]
Peptide exchange: ++++ (>75% = ++++)

-- ask Tell me Peptide exchange reported for 117 (IPHQRSSL; listed as Homo sapiens) [compound 117]
-- reply ++++ (>75% = ++++)

-- ask Recall and state the measured Peptide exchange for 453 (APALPGQVTI; listed as Homo sapiens) [compound 453] .
-- reply ++++ (>75% = ++++)

-- ask Entry 277 (MPPLLIVAF; listed as Homo sapiens) [compound 277] needs its Peptide exchange filled in; supply it.
-- reply ++ (>20% = ++)
